tested on: Escherichia coli TOP10; experiment: shrunken log2 fold change of peptide-encoding DNA abundance (4.5 h post-induction vs induction); higher = less antimicrobial activity (less host growth inhibition); details: time post-induction: 4.5 h; library: site-saturation at positions 5, 18, 19, 20
VALUE_TYPE: shrunken log2 fold change

• RRIRLRPPRLPRPRPRPRHFPRP = -0.131
• RRIRNRPPRLPRPRPRPWPIPRP = -0.0597
• RRIRMRPPRLPRPRPRPPHPPRP = 0.873
• RRIRDRPPRLPRPRPRPKDLPRP = -0.0191
• RRIRNRPPRLPRPRPRPCPRPRP = -0.0673
• RRIRQRPPRLPRPRPRPWCGPRP = -0.00744
• RRIRNRPPRLPRPRPRPDIFPRP = -0.172

---

Overview of reported shrunken log2 fold change across a group of sequences:
tested on: Escherichia coli TOP10; assay: shrunken log2 fold change of peptide-encoding DNA abundance (4.5 h post-induction vs induction); higher = less antimicrobial activity (less host growth inhibition); conditions: time post-induction: 4.5 h; library: site-saturation at positions 5, 18, 19, 20
VALUE_TYPE: shrunken log2 fold change

- RRIRIRPPRLPRPRPRPIWGPRP: -0.0934
- RRIRNRPPRLPRPRPRPCCHPRP: -0.00931
- RRIRKRPPRLPRPRPRPCPHPRP: 0.0793
- RRIRHRPPRLPRPRPRPFNWPRP: -0.194
- RRIRARPPRLPRPRPRPCPKPRP: -0.0619
- RRIRTRPPRLPRPRPRPEWTPRP: 0.188
- RRIRWRPPRLPRPRPRPVFPPRP: 0.268
- RRIRFRPPRLPRPRPRPPCIPRP: -0.0411
- RRIRGRPPRLPRPRPRPEEAPRP: 2.32
- RRIRLRPPRLPRPRPRPRSMPRP: -0.326
- RRIRVRPPRLPRPRPRPYQVPRP: -0.293
- RRIRIRPPRLPRPRPRPRVDPRP: 0.061

---

test system: Escherichia coli TOP10; experiment: shrunken log2 fold change of peptide-encoding DNA abundance (4.5 h post-induction vs induction); higher = less antimicrobial activity (less host growth inhibition); details: time post-induction: 4.5 h; library: site-saturation at positions 5, 18, 19, 20
// thresholds for shrunken log2 fold change classes: low group: < -0.09; middle group: ≥ -0.09 and < 0.1; high group: ≥ 0.1

* RRIRRRPPRLPRPRPRPMPRPRP | high group
* RRIRFRPPRLPRPRPRPGWSPRP | high group
* RRIRDRPPRLPRPRPRPIGAPRP | low group
* RRIRDRPPRLPRPRPRPRIRPRP | middle group
* RRIRYRPPRLPRPRPRPHVPPRP | low group
* RRIRPRPPRLPRPRPRPGSEPRP | middle group
* RRIRLRPPRLPRPRPRPGFIPRP | high group
* RRIRKRPPRLPRPRPRPDHTPRP | middle group
* RRIRERPPRLPRPRPRPWHNPRP | low group
* RRIRYRPPRLPRPRPRPAPMPRP | middle group
* RRIRHRPPRLPRPRPRPHWYPRP | low group
* RRIRHRPPRLPRPRPRPDAPPRP | high group
* RRIRLRPPRLPRPRPRPHKQPRP | low group
* RRIRWRPPRLPRPRPRPRSPPRP | high group

---

Quick reference: shrunken log2 fold change of the listed items.
tested on: Escherichia coli TOP10; test: shrunken log2 fold change of peptide-encoding DNA abundance (4.5 h post-induction vs induction); higher = less antimicrobial activity (less host growth inhibition); conditions: time post-induction: 4.5 h; library: site-saturation at positions 5, 18, 19, 20
VALUE_TYPE: shrunken log2 fold change

* RRIRQRPPRLPRPRPRPWLAPRP | 0.136
* RRIRSRPPRLPRPRPRPQSCPRP | -0.00487
* RRIRGRPPRLPRPRPRPCSFPRP | 0.2
* RRIRARPPRLPRPRPRPKRYPRP | 0.159
* RRIRRRPPRLPRPRPRPGKMPRP | 0.0473
* RRIRGRPPRLPRPRPRPRQCPRP | 0.216
* RRIRLRPPRLPRPRPRPVALPRP | 0.0145
* RRIRYRPPRLPRPRPRPDACPRP | -0.045
* RRIRTRPPRLPRPRPRPGDGPRP | 0.393
* RRIRHRPPRLPRPRPRPHIVPRP | -0.104
* RRIRWRPPRLPRPRPRPKCPPRP | -0.00278
* RRIRIRPPRLPRPRPRPCPMPRP | -0.367
* RRIRARPPRLPRPRPRPTSTPRP | 0.0502
* RRIRGRPPRLPRPRPRPWCHPRP | -0.0582
* RRIRQRPPRLPRPRPRPTATPRP | 0.0728
* RRIRIRPPRLPRPRPRPVSHPRP | 0.113
* RRIRCRPPRLPRPRPRPDTQPRP | -0.239
* RRIRVRPPRLPRPRPRPREGPRP | 0.307
* RRIRIRPPRLPRPRPRPFPGPRP | -0.155
* RRIRLRPPRLPRPRPRPINNPRP | -0.705
* RRIRARPPRLPRPRPRPNHPPRP | -0.0147
* RRIRHRPPRLPRPRPRPGKAPRP | -0.0115
* RRIRSRPPRLPRPRPRPAVTPRP | 0.293

---

test system: Escherichia coli TOP10; experiment: shrunken log2 fold change of peptide-encoding DNA abundance (4.5 h post-induction vs induction); higher = less antimicrobial activity (less host growth inhibition); conditions: time post-induction: 4.5 h; library: site-saturation at positions 5, 18, 19, 20
Here, each record is paired with measured shrunken log2 fold change data.
VALUE_TYPE: shrunken log2 fold change

• RRIRNRPPRLPRPRPRPFFMPRP = 0.0606
• RRIRHRPPRLPRPRPRPKPIPRP = -0.0951
• RRIRHRPPRLPRPRPRPETHPRP = 0.0411
• RRIRLRPPRLPRPRPRPEDWPRP = 0.544
• RRIRHRPPRLPRPRPRPQPAPRP = -0.0767
• RRIRTRPPRLPRPRPRPAWWPRP = 0.615
• RRIRCRPPRLPRPRPRPHQCPRP = -0.24
• RRIRGRPPRLPRPRPRPFVCPRP = 0.327
• RRIRSRPPRLPRPRPRPYKSPRP = -0.694
• RRIRCRPPRLPRPRPRPICLPRP = -0.127
• RRIRWRPPRLPRPRPRPCLMPRP = -0.225
• RRIRPRPPRLPRPRPRPCMPPRP = -0.534
• RRIRHRPPRLPRPRPRPVLDPRP = -0.116
• RRIRCRPPRLPRPRPRPIMKPRP = -0.649
• RRIRQRPPRLPRPRPRPIAVPRP = -0.038
• RRIRHRPPRLPRPRPRPLWEPRP = 0.0119
• RRIRVRPPRLPRPRPRPITHPRP = -0.171
• RRIRLRPPRLPRPRPRPYDFPRP = -0.0867
• RRIRQRPPRLPRPRPRPHVMPRP = -0.444
• RRIRIRPPRLPRPRPRPPCMPRP = -0.169
• RRIRCRPPRLPRPRPRPKKMPRP = 0.169
• RRIRYRPPRLPRPRPRPSCMPRP = -0.947
• RRIRTRPPRLPRPRPRPEPWPRP = 0.291
• RRIRNRPPRLPRPRPRPSFWPRP = -0.056
• RRIRFRPPRLPRPRPRPKCKPRP = 0.00614
• RRIRYRPPRLPRPRPRPQQFPRP = -0.397
• RRIRFRPPRLPRPRPRPTIKPRP = -0.223
• RRIRWRPPRLPRPRPRPQDGPRP = 0.0557

---

test system: Escherichia coli TOP10; assay: shrunken log2 fold change of peptide-encoding DNA abundance (4.5 h post-induction vs induction); higher = less antimicrobial activity (less host growth inhibition); conditions: time post-induction: 4.5 h; library: site-saturation at positions 5, 18, 19, 20;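 note: peptides expressed intracellularly from a pBAD plasmid library in pooled LB shake-flask culture, induced with 0.3% L-arabinose, DNA abundance read by NGS, three biological replicates, DESeq2 with apeglm shrinkage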
VALUE_TYPE: shrunken log2 fold change

* RRIRNRPPRLPRPRPRPDPQPRP | 0.0854
* RRIRFRPPRLPRPRPRPVVIPRP | 0.0715
* RRIRWRPPRLPRPRPRPRKIPRP | 0.491
* RRIRARPPRLPRPRPRPYWSPRP | -0.186
* RRIRRRPPRLPRPRPRPHWCPRP | 0.0137
* RRIRSRPPRLPRPRPRPPIWPRP | 0.0326
* RRIRKRPPRLPRPRPRPRIDPRP | -0.154
* RRIRRRPPRLPRPRPRPSIKPRP | 2.9
* RRIRQRPPRLPRPRPRPSTDPRP | -0.468
* RRIRPRPPRLPRPRPRPFPNPRP | -0.0765
* RRIRTRPPRLPRPRPRPWLSPRP | -0.272
* RRIRDRPPRLPRPRPRPTVFPRP | 0.708
* RRIRLRPPRLPRPRPRPQWWPRP | 0.491
* RRIRYRPPRLPRPRPRPDSSPRP | -0.0431
* RRIRYRPPRLPRPRPRPQMWPRP | -0.213
* RRIRPRPPRLPRPRPRPKSEPRP | 0.197
* RRIRQRPPRLPRPRPRPVNGPRP | -0.0109
* RRIRCRPPRLPRPRPRPGVCPRP | 0.117
* RRIRDRPPRLPRPRPRPFVVPRP | -0.266
* RRIRMRPPRLPRPRPRPARSPRP | 1.05
* RRIRWRPPRLPRPRPRPAHHPRP | -0.0193
* RRIRQRPPRLPRPRPRPTIKPRP | -0.374
* RRIRKRPPRLPRPRPRPLECPRP | -0.00691
* RRIRWRPPRLPRPRPRPQSGPRP | 0.186
* RRIRIRPPRLPRPRPRPWYLPRP | -0.166
* RRIRMRPPRLPRPRPRPLGDPRP | 0.364
* RRIRCRPPRLPRPRPRPCYPPRP | -0.743
* RRIRVRPPRLPRPRPRPPANPRP | 0.3
* RRIRGRPPRLPRPRPRPVMFPRP | 0.451
* RRIRIRPPRLPRPRPRPLPHPRP | -0.0305
* RRIRIRPPRLPRPRPRPLLAPRP | 0.185
* RRIRRRPPRLPRPRPRPAGAPRP | 0.497
* RRIRYRPPRLPRPRPRPTVKPRP | -0.428
* RRIRCRPPRLPRPRPRPQSWPRP | 0.69
* RRIRMRPPRLPRPRPRPNTTPRP | 0.191
* RRIRKRPPRLPRPRPRPPMPPRP | 0.525
* RRIRARPPRLPRPRPRPHESPRP | 0.779
* RRIRNRPPRLPRPRPRPYNQPRP | -0.597
* RRIRCRPPRLPRPRPRPNVYPRP | -0.53
* RRIRARPPRLPRPRPRPPIFPRP | 0.25
* RRIRMRPPRLPRPRPRPTLMPRP | 0.0126
* RRIRIRPPRLPRPRPRPECPPRP | -0.0846
* RRIRWRPPRLPRPRPRPCIFPRP | -0.683
* RRIRCRPPRLPRPRPRPQRLPRP | 0.44
* RRIRMRPPRLPRPRPRPWAEPRP | 0.628
* RRIRCRPPRLPRPRPRPDSLPRP | -0.0818
* RRIRFRPPRLPRPRPRPMSSPRP | -0.0482
* RRIRQRPPRLPRPRPRPTTCPRP | 0.106
* RRIRDRPPRLPRPRPRPDIQPRP | -0.228
* RRIRTRPPRLPRPRPRPSWYPRP | -1.12
* RRIRSRPPRLPRPRPRPPAFPRP | -0.00342
* RRIRLRPPRLPRPRPRPCNYPRP | -0.593
* RRIRNRPPRLPRPRPRPHHSPRP | 0.0657
* RRIRQRPPRLPRPRPRPMKTPRP | 0.0802
* RRIRWRPPRLPRPRPRPEPQPRP | 0.818
* RRIRQRPPRLPRPRPRPPRRPRP | 0.852
